system: CYP3A4 (Homo sapiens)
Sequence (P08684 whole entry): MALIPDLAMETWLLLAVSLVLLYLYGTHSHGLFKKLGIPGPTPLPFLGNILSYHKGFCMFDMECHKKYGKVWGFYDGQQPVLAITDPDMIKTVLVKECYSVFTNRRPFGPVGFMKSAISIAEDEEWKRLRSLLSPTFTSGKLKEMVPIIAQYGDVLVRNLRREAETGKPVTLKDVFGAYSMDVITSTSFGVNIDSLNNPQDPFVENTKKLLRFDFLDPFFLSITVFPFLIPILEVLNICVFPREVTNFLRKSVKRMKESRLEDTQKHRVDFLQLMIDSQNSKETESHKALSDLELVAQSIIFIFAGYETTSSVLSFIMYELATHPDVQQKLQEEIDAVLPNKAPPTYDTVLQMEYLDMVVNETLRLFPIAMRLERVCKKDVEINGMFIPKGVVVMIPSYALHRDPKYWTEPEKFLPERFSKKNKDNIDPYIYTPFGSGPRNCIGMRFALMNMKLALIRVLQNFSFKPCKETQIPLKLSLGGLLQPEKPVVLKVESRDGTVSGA
assay name: Time dependent inhibition of CYP3A4 (unknown origin) at 10 uM relative to control
Type: ADME
reported conditions: read-out: TDI

| compound | inhibition at 10 µM (%) |
| --- | --- |
| C[C@@H]1COCCN1c1nc(-c2ccnc3[nH]ccc23)nc2c1ccn2S(C)(=O)=O | 21.2 |
| C[C@@H]1COCCN1c1nc(-c2cncc3[nH]ccc23)nc2c1ccn2S(C)(=O)=O | 18.6 |

----------
system: Receptor-type tyrosine-protein kinase FLT3 (Homo sapiens)
Sequence (P36888 whole entry): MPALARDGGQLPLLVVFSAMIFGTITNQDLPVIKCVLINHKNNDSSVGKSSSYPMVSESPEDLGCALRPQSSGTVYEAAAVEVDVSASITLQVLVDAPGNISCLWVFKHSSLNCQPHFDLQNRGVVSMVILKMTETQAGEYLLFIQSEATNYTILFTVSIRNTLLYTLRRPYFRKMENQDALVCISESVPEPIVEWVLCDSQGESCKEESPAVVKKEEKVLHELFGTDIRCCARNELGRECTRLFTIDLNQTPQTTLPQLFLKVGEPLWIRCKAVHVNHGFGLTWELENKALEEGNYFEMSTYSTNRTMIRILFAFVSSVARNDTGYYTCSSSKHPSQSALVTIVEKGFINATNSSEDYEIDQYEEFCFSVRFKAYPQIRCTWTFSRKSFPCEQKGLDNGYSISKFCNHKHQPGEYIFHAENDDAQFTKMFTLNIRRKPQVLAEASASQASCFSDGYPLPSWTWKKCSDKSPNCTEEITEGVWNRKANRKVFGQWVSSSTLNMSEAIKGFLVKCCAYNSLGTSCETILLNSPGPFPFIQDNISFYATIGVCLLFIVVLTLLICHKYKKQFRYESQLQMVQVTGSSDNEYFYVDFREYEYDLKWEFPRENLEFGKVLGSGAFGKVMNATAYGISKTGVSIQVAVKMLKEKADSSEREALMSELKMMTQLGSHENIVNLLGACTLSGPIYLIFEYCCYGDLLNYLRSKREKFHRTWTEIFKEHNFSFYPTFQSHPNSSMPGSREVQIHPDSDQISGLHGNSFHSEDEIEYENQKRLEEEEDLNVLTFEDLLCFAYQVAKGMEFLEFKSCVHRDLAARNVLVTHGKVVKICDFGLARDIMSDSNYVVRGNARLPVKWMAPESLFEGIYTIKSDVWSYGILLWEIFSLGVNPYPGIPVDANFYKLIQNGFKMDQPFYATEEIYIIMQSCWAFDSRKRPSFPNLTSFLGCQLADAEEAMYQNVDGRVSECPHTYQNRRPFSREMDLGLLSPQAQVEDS
pIC50: −log10 of the molar value.

| compound | pIC50 |
| --- | --- |
| C[C@@H]1COCCN1c1nc(-c2cncc3[nH]ccc23)nc2c1ccn2S(C)(=O)=O | < 5.00 |
| C[C@@H]1COCCN1c1nc(-c2ccnc3[nH]ccc23)nc2c1ccn2S(C)(=O)=O | < 5.00 |

----------
System: NCI-H446
assay name: Antiproliferative activity against human NCI-H446 cells assessed as inhibition of cell growth incubated for 72 hrs by MTS assay
Type: functional, cell-based
reported conditions: NCI-H446, 72 h

| compound | IC50 (nM) |
| --- | --- |
| C[C@@H]1COCCN1c1cc(C2([S@](C)(=N)=O)CC2)nc(-c2cc[nH]c3nccc2-3)n1 | 1960 |
| C[C@@H]1COCCN1c1nc(-c2cncc3[nH]ccc23)nc2c1ccn2S(C)(=O)=O | 230 |
| C[C@@H]1COCCN1c1cc(C2(S(C)(=O)=O)CC2)nc(-c2cccc3[nH]ccc23)n1 | 3900 |
